Assay: method code SF-AS, from DOI: 10.1002/chin.198834177
Conditions: pH 5.6
ENDPOINT_LABEL: logD

Consider the following illustrative entries.
CCOC(=O)C(C)(C)n1nc2ccccc2n1	2.98
CCCC(C(N)=O)n1nc2ccccc2n1 (configuration not stated)	1.75

P. CCC(C(N)=O)n1nc2ccccc2n1 (configuration not stated)
Q. CCCC(C(=O)OCC)n1nnc2ccccc21 (configuration not stated)
R. CC(C(N)=O)n1nc2ccccc2n1 (configuration not stated)
input: Returns the items ordered by logD, from maximum to minimum. Field: ranking. Enter the labels in the order requested.
output: Q, P, R
(Q: 2.82, P: 1.25, R: 0.86)
